# Test system: murine TTC39C mRNA
# test: Dose-dependent antisense inhibition of murine TTC39C in mouse primary hepatocytes
# Type: cell-based
# measurement-setup: 2000.0 nM, electroporation, ~16 h
Oligonucleotides are written 5' to 3', each unit as a sugar letter and its base; * is a phosphorothioate linkage, no mark a phosphodiester; rarer units and linkages stand in square brackets, end groups in braces. Plain capitals give the bases only. e = 2'-O-(2-methoxyethyl) (MOE); [5mC] = 5-methylcytosine; d = 2'-deoxy (DNA)
percent inhibition of TTC39C mRNA: recorded values
endpoint: percent inhibition of TTC39C mRNA (%)

substance: ISIS 474592: 5-10-5 MOE gapmer antisense oligonucleotide targeting murine TTC39C (antisense eG*eA*eA*eG*e[5mC]*dA*dT*dA*dT*dT*dG*dA*dT*dG*d[5mC]*e[5mC]*eA*eG*e[5mC]*e[5mC])
result: 71
//
substance: ISIS 474601: 5-10-5 MOE gapmer antisense oligonucleotide targeting murine TTC39C (antisense eG*eG*e[5mC]*e[5mC]*eA*dT*dA*dT*d[5mC]*d[5mC]*dA*dA*dA*dG*d[5mC]*eT*e[5mC]*eA*e[5mC]*eA)
result: 65

###

percent inhibition of TTC39C mRNA: recorded values
# System: murine TTC39C mRNA
# test: Dose-dependent antisense inhibition of murine TTC39C in mouse primary hepatocytes
# Assay type: cell-based
# measurement-setup: 500.0 nM, electroporation, ~16 h
Oligonucleotides are written 5' to 3', each unit as a sugar letter and its base; * is a phosphorothioate linkage, no mark a phosphodiester; rarer units and linkages stand in square brackets, end groups in braces. Plain capitals give the bases only. e = 2'-O-(2-methoxyethyl) (MOE); [5mC] = 5-methylcytosine; d = 2'-deoxy (DNA)

substance: ISIS 474617: 5-10-5 MOE gapmer antisense oligonucleotide targeting murine TTC39C (antisense eA*eG*eT*eT*e[5mC]*d[5mC]*d[5mC]*dT*dT*dA*dG*dG*dG*dA*dG*eG*e[5mC]*e[5mC]*eA*eG)
percent inhibition of TTC39C mRNA, %: 43
--
substance: ISIS 474516: 5-10-5 MOE gapmer antisense oligonucleotide targeting murine TTC39C (antisense eT*eT*eA*eG*eT*dG*dG*dA*d[5mC]*dT*dA*dT*dG*dA*dT*eT*eT*e[5mC]*eT*eG)
percent inhibition of TTC39C mRNA, %: 34
--
substance: ISIS 474654: 5-10-5 MOE gapmer antisense oligonucleotide targeting murine TTC39C (antisense eT*e[5mC]*eA*eG*e[5mC]*dT*dA*d[5mC]*dA*dG*dA*dA*d[5mC]*dG*d[5mC]*eA*eG*eG*eG*eT)
percent inhibition of TTC39C mRNA, %: 11
--
substance: ISIS 474666: 5-10-5 MOE gapmer antisense oligonucleotide targeting murine TTC39C (antisense e[5mC]*eA*eA*eT*e[5mC]*dA*dT*dG*d[5mC]*dT*dG*d[5mC]*dA*d[5mC]*d[5mC]*eA*eG*e[5mC]*e[5mC]*eT)
percent inhibition of TTC39C mRNA, %: 35

###

body weight: recorded values
# test: Body and organ weights in C57BL/6 mice
# Assay type: in vivo, mouse
# measurement-setup: week 4, 50 mg/kg/week
Oligonucleotides are written 5' to 3', each unit as a sugar letter and its base; * is a phosphorothioate linkage, no mark a phosphodiester; rarer units and linkages stand in square brackets, end groups in braces. Plain capitals give the bases only. e = 2'-O-(2-methoxyethyl) (MOE); [5mC] = 5-methylcytosine; d = 2'-deoxy (DNA)

sequence-entry: TATTTCTATAGCTCATGACA (antisense eT*eA*eT*eT*eT*d[5mC]*dT*dA*dT*dA*dG*d[5mC]*dT*d[5mC]*dA*eT*eG*eA*e[5mC]*eA) [ISIS 447144]
body weight [g]: 27

sequence-entry: GCAGCTCGATTCGGGCATGA (antisense eG*e[5mC]*eA*eG*e[5mC]*dT*d[5mC]*dG*dA*dT*dT*d[5mC]*dG*dG*dG*e[5mC]*eA*eT*eG*eA) [ISIS 447118]
body weight [g]: 26

sequence-entry: GCCACCAGTGCCTGCTGAGC (antisense eG*e[5mC]*e[5mC]*eA*e[5mC]*d[5mC]*dA*dG*dT*dG*d[5mC]*d[5mC]*dT*dG*d[5mC]*eT*eG*eA*eG*e[5mC]) [ISIS 447143]
body weight [g]: 27

sequence-entry: CGGATGATTCTTGCTGGTAA (antisense e[5mC]*eG*eG*eA*eT*dG*dA*dT*dT*d[5mC]*dT*dT*dG*d[5mC]*dT*eG*eG*eT*eA*eA) [ISIS 447114]
body weight [g]: 26

Data provenance is patent US20120270929A1.
